B1: GNB5 (parent)
chain: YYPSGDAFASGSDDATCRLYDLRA

Variants of: B1
Assay: protein stability index of a GFP-peptide fusion (GPS, HEK-293T) (PSI 1-6); higher = more stable;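 also: lentivirally expressed fusions sorted by FACS into six bins by GFP to DsRed ratio, PSI derived from sequencing read proportions per bin multiplied by bin number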
Settings: c terminus: a fixed tail appended

| alteration | protein stability index |
| --- | --- |
| Y20K | 2.88 |
| D21P | 2.52 |
| Y20N | 2.95 |
| D13Y | 2.11 |
| S10Q | 2.54 |
| S12I | 2.24 |
| Y1W | 2.86 |
| A7T | 2.71 |
| R23A | 2.47 |
| D13V | 1.78 |
| C17Y | 2.23 |
| A24G | 2.7 |
| A24N | 2.79 |
| C17F | 2.07 |
| D6Q | 1.83 |
| P3V | 2.31 |
| A24S | 2.32 |
| G5A | 2.95 |
| G5H | 2.81 |
| G5T | 3.56 |
| S12E | 2.89 |
| A15Q | 2.62 |
| Y1K | 3.55 |
| T16Q | 2.88 |
| D6R | 1.91 |
| D14F | 2.12 |
| R23V | 2.03 |
| A9F | 1.9 |
| D21L | 2.02 |
| S4P | 3.78 |
| D13T | 1.76 |
| D21Y | 1.61 |
| R18S | 2.88 |
| C17W | 2.48 |
| R18K | 3.04 |
| S4N | 3.03 |
| C17G | 2.85 |
